Readings of GI50 for the listed molecules
Tested on: MDA-MB-435 breast cancer cells
Assay: NCI in vitro anticancer screen, MDA-MB-435 breast cancer
Type: cell-based
Details: Homo sapiens, MDA-MB-435, read-out: cytotoxicity GI50, Breast MDA-MB-435

| MOLECULE | GI50 |
| --- | --- |
| C[C@]12CC[C@@H]3c4cc(OCC(F)(F)F)c(O)cc4C(=NO)C[C@H]3[C@@H]1CC[C@@H]2O [Compound 12] | < 10 nM |
| CCOc1cc2c(cc1O)C(=O)C[C@@H]1[C@@H]2CC[C@]2(C)[C@@H](O)CC[C@@H]12 [Compound 10] | < 10 nM |

Now consider a different molecule.
Output GI50 of CCOc1cc2c(cc1O)C(=NO)C[C@@H]1[C@@H]2CC[C@]2(C)[C@@H](O)CC[C@@H]12 [Compound 11]
< 10 nM

----------
Tested on: HCT-116 colon cancer cells
Assay: NCI in vitro anticancer screen, HCT-116 colon cancer
Format: cell-based
Settings: Homo sapiens, HCT-116, read-out: cytotoxicity GI50, Colon HCT-116
Each record here notes measured GI50.

Consider the reported GI50 for these compounds:
| CPD SMILES | GI50 |
| --- | --- |
| C[C@]12CC[C@@H]3c4cc(OCC(F)(F)F)c(O)cc4C(=NO)C[C@H]3[C@@H]1CC[C@@H]2O | < 10 nM |
| CCOc1cc2c(cc1O)C(=NO)C[C@@H]1[C@@H]2CC[C@]2(C)[C@@H](O)CC[C@@H]12 | < 10 nM |

Determine from records and report GI50 for CCOc1cc2c(cc1O)C(=NOC)C[C@@H]1[C@@H]2CC[C@]2(C)[C@@H](O)CC[C@@H]12
< 10 nM

Values compiled from patent US6136992A.
